test system: Fibroblast; assay: Multiplex assay against human fibroblast; format: toxicity, cell-based; settings: 12 h, 10 µM, compound concentration 10 uM, replicate 2
Listed below: Population Pyknosed Nuclei (%) values for each entry.
Measurement name: Population Pyknosed Nuclei (%)

Chem smiles: CCOc1cc(N2CCC(O)CC2)ccc1Nc1ncc2c(n1)N(C1CCCC1)CCC(=O)N2C
Measurement name: Population Pyknosed Nuclei (%)
Value reported: 13%
//
Chem smiles: Nc1nc2c(c(N3CCNCC3)n1)CCC1=C2[C@@H]2CCCC[C@@H]2O1
Measurement name: Population Pyknosed Nuclei (%)
Value reported: 21%
//
Chem smiles: CN(C)CCOc1ccc(-c2nc(-c3ccncc3)c(-c3ccc4c(c3)CC/C4=N\O)[nH]2)cc1
Measurement name: Population Pyknosed Nuclei (%)
Value reported: 1%

* * *

tested on: U2OS; experiment: Multiplex assay against U2OS; type: toxicity, cell-based; details: human, 12 h, 10 µM, compound concentration 10 uM, replicate 1

Compound: CCn1c(-c2nonc2N)nc2cnc(Oc3cccc(NC(=O)c4ccc(OCCN5CCOCC5)cc4)c3)cc21 [GSK-269962A]
System under test: U2OS
Unit text: %
Population Mitotic Cells (%): 49
--
Compound: Nc1ccc(C(=O)Nc2cccc(-c3nc(N4CCOCC4)c4oc5ncccc5c4n3)c2)cn1
System under test: U2OS
Unit text: %
Population Mitotic Cells (%): 43
--
Compound: COc1cc2c(Nc3ccc(NC(=O)c4ccccc4)cc3)ncnc2cc1OCCCN1CCOCC1
System under test: U2OS
Unit text: %
Population Mitotic Cells (%): 55
--
Compound: CC(C)(C)c1cnc(CSc2cnc(NC(=O)C3CCNCC3)s2)o1
System under test: U2OS
Unit text: %
Population Mitotic Cells (%): 60
--
Compound: Cl.Cl.Nc1ncnc2c1c(-c1cccc(OCc3ccccc3)c1)cn2[C@H]1C[C@@H](CN2CCC2)C1
System under test: U2OS
Unit text: %
Population Mitotic Cells (%): 18

* * *

tested on: Fibroblast; assay: Multiplex assay against human fibroblast; format: toxicity, cell-based; conditions: 24 h, 10 µM, compound concentration 10 uM, replicate 1
Listed below: Population Pyknosed Nuclei (%) values for each entry.

Compound: CCn1c(-c2nonc2N)nc2cnc(Oc3cccc(NC(=O)c4ccc(OCCN5CCOCC5)cc4)c3)cc21 [GSK-269962A]
System under test: Fibroblast
Population Pyknosed Nuclei (%): 20%
--
Compound: Nc1ccc(C(=O)Nc2cccc(-c3nc(N4CCOCC4)c4oc5ncccc5c4n3)c2)cn1
System under test: Fibroblast
Population Pyknosed Nuclei (%): 13%
--
Compound: N#Cc1cnc(Nc2cc(NC[C@H]3CNCCO3)c(C(F)(F)F)cn2)cn1 [SRA-737]
System under test: Fibroblast
Population Pyknosed Nuclei (%): 10%
--
Compound: CCc1cc2c(cc1CC)CC(NC[C@H](O)c1ccc(O)c3[nH]c(=O)ccc13)C2 [INDACATEROL]
System under test: Fibroblast
Population Pyknosed Nuclei (%): 19%
--
Compound: CNc1oc(-c2cccc3ccccc23)nc1C#N
System under test: Fibroblast
Population Pyknosed Nuclei (%): 31%
--
Compound: CCCn1c(=O)c2[nH]c(C34CC5CC(CC3C5)C4)nc2n(CCC)c1=O [ROLOFYLLINE]
System under test: Fibroblast
Population Pyknosed Nuclei (%): 39%
--
Compound: CCOc1cc2ncc(C#N)c(Nc3ccc(OCc4cccc(F)c4)c(Cl)c3)c2cc1NC(=O)/C=C/CN(C)C [HKI-357]
System under test: Fibroblast
Population Pyknosed Nuclei (%): 12%
--
Compound: O=C(O)c1ccc2cc(-c3ccc(O)c(C45CC6CC(CC(C6)C4)C5)c3)ccc2c1 [O-DEMETHYLATED ADAPALENE]
System under test: Fibroblast
Population Pyknosed Nuclei (%): 29%
--
Compound: Cc1cc2c(cc1N1C(=O)c3cccc4c(CCCO)ccc(c34)C1=O)n(C)c(=O)n2C
System under test: Fibroblast
Population Pyknosed Nuclei (%): 29%
--
Compound: Cc1cn(-c2cc(NC(=O)c3ccc4c(c3)CN(c3cncnc3)C[C@@H]4C)cc(C(F)(F)F)c2)cn1
System under test: Fibroblast
Population Pyknosed Nuclei (%): 15%
--
Compound: COc1cc2c(NC3CCN(C(C)C)CC3)nc(N3CCC(F)(F)CC3)nc2cc1OCCCN1CCCC1
System under test: Fibroblast
Population Pyknosed Nuclei (%): 35%
--
Compound: CC(C)N1CCC(C)(C)c2cc(C#Cc3ccc(C(=O)O)cc3)ccc21
System under test: Fibroblast
Population Pyknosed Nuclei (%): 5%
--
Compound: CN(C)C/C=C/C(=O)Nc1cc2c(Nc3ccc(F)c(Cl)c3)ncnc2cc1O[C@H]1CCOC1.O=C(O)/C=C\C(=O)O.O=C(O)/C=C\C(=O)O [AFATINIB DIMALEATE]
System under test: Fibroblast
Population Pyknosed Nuclei (%): 15%
--
Compound: Cl.Cl.NC1(c2ccc(-c3nc4ccn5c(=O)[nH]nc5c4cc3-c3ccccc3)cc2)CCC1
System under test: Fibroblast
Population Pyknosed Nuclei (%): 44%
--
Compound: CC(C)(C)c1cnc(CSc2cnc(NC(=O)C3CCNCC3)s2)o1 [BMS-387032]
System under test: Fibroblast
Population Pyknosed Nuclei (%): 17%
--
Compound: COc1cc2c(Nc3ccc(NC(=O)c4ccccc4)cc3)ncnc2cc1OCCCN1CCOCC1
System under test: Fibroblast
Population Pyknosed Nuclei (%): 13%
--
Compound: CCC(=O)O[C@]1(C(=O)SCF)[C@H](C)C[C@H]2[C@@H]3C[C@H](F)C4=CC(=O)C=C[C@]4(C)[C@@]3(F)[C@@H](O)C[C@@]21C [FLUTICASONE PROPIONATE]
System under test: Fibroblast
Population Pyknosed Nuclei (%): 19%
--
Compound: c1ccc2oc(-c3csc(C4CCN(Cc5nc6ncccc6[nH]5)CC4)n3)cc2c1
System under test: Fibroblast
Population Pyknosed Nuclei (%): 13%
--
Compound: CN(C)CCOc1ccc(-c2nc(-c3ccncc3)c(-c3ccc4c(c3)CC/C4=N\O)[nH]2)cc1 [SB590885]
System under test: Fibroblast
Population Pyknosed Nuclei (%): 13%

* * *

system: HEK-293T; experiment: Multiplex assay against HEK293T; assay type: toxicity, cell-based; conditions: human, 12 h, 1 µM, compound concentration 1 uM, replicate 2;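 also: share of the cells with healthy nuclei that show this phenotype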
Classify: rule met when Population Tubulin-Different-Phenotype (%) is strictly less than 20%; rule not met when Population Tubulin-Different-Phenotype (%) is not.

Compound: Cc1nc(Cc2cccc(C(F)(F)F)c2)sc1-c1ccc(C(N)=O)nc1 [TP-024n]
Qualitative label: rule not met

Compound: CN(C)C/C=C/C(=O)Nc1cc2c(Nc3ccc(F)c(Cl)c3)ncnc2cc1O[C@H]1CCOC1.O=C(O)/C=C\C(=O)O.O=C(O)/C=C\C(=O)O [AFATINIB DIMALEATE]
Qualitative label: rule met

Compound: CCOc1cc2ncc(C#N)c(Nc3ccc(OCc4cccc(F)c4)c(Cl)c3)c2cc1NC(=O)/C=C/CN(C)C
Qualitative label: rule met

Compound: CNc1oc(-c2cccc3ccccc23)nc1C#N
Qualitative label: rule met

Compound: c1ccc2oc(-c3csc(C4CCN(Cc5nc6ncccc6[nH]5)CC4)n3)cc2c1
Qualitative label: rule met

Compound: O=C(O)c1ccc2cc(-c3ccc(O)c(C45CC6CC(CC(C6)C4)C5)c3)ccc2c1
Qualitative label: rule met

Compound: COc1cc(N2CCC(N(C)C)CC2)ccc1Nc1ncc(Cl)c(Nc2ccccc2P(C)(C)=O)n1
Qualitative label: rule not met

Compound: CCc1cc2c(cc1CC)CC(NC[C@H](O)c1ccc(O)c3[nH]c(=O)ccc13)C2
Qualitative label: rule not met

Compound: CNC(=O)c1nn(C)c2c1C(C)(C)Cc1cnc(Nc3ccc(N4CCN(C)CC4)cc3)nc1-2
Qualitative label: rule not met

Compound: COc1cc2c(NC3CCN(C(C)C)CC3)nc(N3CCC(F)(F)CC3)nc2cc1OCCCN1CCCC1
Qualitative label: rule not met

* * *

test system: Fibroblast; experiment: Multiplex assay against human fibroblast; format: toxicity, cell-based; settings: 24 h, 1 µM, compound concentration 1 uM, replicate 2
Listed below: Population Pyknosed Nuclei (%) values for each entry.
Measurement name: Population Pyknosed Nuclei (%)

Compound: CNC(=O)c1cc(Oc2ccc(NC(=O)Nc3cc(C(C)(C)C)nn3-c3ccc4ncccc4c3)c(F)c2)ccn1 [REBASTINIB]
System under test: Fibroblast
Value reported: 5%
--
Compound: CCCn1c(=O)c2[nH]c(C34CC5CC(CC3C5)C4)nc2n(CCC)c1=O [ROLOFYLLINE]
System under test: Fibroblast
Value reported: 4%
--
Compound: CC(=O)c1cc(-c2cc(C(=O)NC3CC3)ccc2C)c2ncccn12
System under test: Fibroblast
Value reported: 5%
--
Compound: O=C(O)c1ccc2cc(-c3ccc(O)c(C45CC6CC(CC(C6)C4)C5)c3)ccc2c1 [O-DEMETHYLATED ADAPALENE]
System under test: Fibroblast
Value reported: 3%
--
Compound: Cc1cc2c(cc1N1C(=O)c3cccc4c(CCCO)ccc(c34)C1=O)n(C)c(=O)n2C
System under test: Fibroblast
Value reported: 5%
--
Compound: CNc1oc(-c2cccc3ccccc23)nc1C#N
System under test: Fibroblast
Value reported: 3%
--
Compound: CC(C)N1CCC(C)(C)c2cc(C#Cc3ccc(C(=O)O)cc3)ccc21
System under test: Fibroblast
Value reported: 5%
--
Compound: Cl.Cl.NC1(c2ccc(-c3nc4ccn5c(=O)[nH]nc5c4cc3-c3ccccc3)cc2)CCC1
System under test: Fibroblast
Value reported: 9%

These data points were gathered from ChEMBL document CHEMBL4689842.
